These data points were gathered from patent US20240010720A1.

Target: T1, human IGSF11 (VSIG3) on cells (human, UniProt Q5DX21 23-431)
T1 sequence: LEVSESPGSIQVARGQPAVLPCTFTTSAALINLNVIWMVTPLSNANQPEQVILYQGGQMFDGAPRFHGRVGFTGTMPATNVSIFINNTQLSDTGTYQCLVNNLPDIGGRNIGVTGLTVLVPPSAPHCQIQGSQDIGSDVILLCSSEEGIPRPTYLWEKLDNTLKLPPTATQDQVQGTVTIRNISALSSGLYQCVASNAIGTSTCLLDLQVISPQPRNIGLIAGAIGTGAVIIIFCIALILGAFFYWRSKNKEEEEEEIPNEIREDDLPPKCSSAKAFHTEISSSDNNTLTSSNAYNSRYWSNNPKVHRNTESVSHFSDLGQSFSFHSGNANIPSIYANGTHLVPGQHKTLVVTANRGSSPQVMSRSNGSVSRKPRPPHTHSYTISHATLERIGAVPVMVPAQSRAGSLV
Test: FACS, HEK cells expressing IGSF11
In this section, each of the binders is paired with its reported EC50.

>>> measured_result("A-027 (IgG1 format) (antibody, V domains shown, human IgG1 format) VH: QVQLVQSGAEVKKPGSSVKVSCKASGGTFSSYAISWVRQAPGQGLEWMGGIIPIFGTANYAQKFQGRVTITADKSTSTAYMELSSLRSEDTAVYYCARARGSTWGYFDYWGQGTLVTVSS VL: EIVLTQSPASLSLSPGERVTLSCRASQSVSNYLAWYQQKPGQAPRLLIYDASNRATGIPARFSGSGSGTDFTLTISSLEPEDFAVYYCQQRDNWPLTFGGGTKVEIK")
"> 50 nM"
>>> measured_result("A-022 (IgG1 format) (antibody, V domains shown, human IgG1 format) VH: EVQLLESGPGLVKPSQTLSLTCTVSGGSISSGGYYWSWIRQHPGKGLEWIGYIYYSGSTYYNPSLKSRVTISVDTSKNQFSLKLSSVTAADTAVYYCARASRSTDYYFDYWGQGTLVTVSS VL: QPGLTQPPSMSYGLGQTATLTCTGNRNNIGDQGAAWLQQHQGHPPKLLSYRNNNGPSGISERLSASRSGNTASLTISGLQPEDEADYYCSAWDSSLRAWVFGGGTKLTVL")
"10 to 50 nM"
>>> measured_result("A-011 (IgG1 format) (antibody, V domains shown, human IgG1 format) VH: QVQLVESGGGVVQPGRSLRLSCAASGFTFSSYAMHWVRQAPGKGLEWVAVISYDGSNKYYADSVKGRFTISRDNSKNTLYLQMNSLRAEDTAVYYCAEGGALNYYGMDVWGQGTTVTVSS VL: SSELTQDPGVSVALGQTVRITCQGDSLRHFYATWYQQKPGQAPILVIYGKNNRPSGIPDRFSGSSSEDTASLTITGAQAEDEADYYCQSRDPRNNHLIFGGGTKLIVL")
"> 50 nM"

In: Give EC50 for the following binder: A-006 (IgG1 format) (antibody, V domains shown, human IgG1 format; also called A-006-like ABP) VH: EVQLVESGGGLIQPGGSLRLSCAASGFTVSSNYMSWVRQAPGKGLEWVSVIYSGGSTYYADSVKGRFTISRDNSKNTLYLQMNSLRAEDTAVYYCARGNPYYYGDLQVNFDYWGQGTLVTVSS VL: QAVVTQEPSLTVSPGGTVTLTCASSTGAVTSGYYPNWFQQKPGQAPRPLIYSTSNKHSWTPARFSGSLLGGKAALTLSGVQPDDEAEYYCLLYYGGDWVFGGGTKLTVL
Out: 10 to 50 nM

In: Give EC50 for the following binder: B-001 (chain-swapped IgG1) (antibody, V domains shown, human IgG1 format; also called B1) VH: EVQLLESGGGLIQPGGSLRLSCAVSGFTVSSNYMSWVRQAPGKGLEWVSVIYSGGSTYYADSVKGRFTISRDNSKNTLYLQMNSLRAEDTAVYYCARGNPYYYGDLQVNFDYWGQGTLVTVSS VL: QAVVTQEPSLTVSPGGTVTLTCASSTGAVTSAYYPNWFQQKPGQAPRALIYSTSNKHSWTPARFSGSLLGGKAALTLSGVQPEDEADYYCLLYYGGAWVFGGGTKLTVL
Out: 10 to 50 nM

In: Give EC50 for the following binder: A-012 (IgG1 format) (antibody, V domains shown, human IgG1 format) VH: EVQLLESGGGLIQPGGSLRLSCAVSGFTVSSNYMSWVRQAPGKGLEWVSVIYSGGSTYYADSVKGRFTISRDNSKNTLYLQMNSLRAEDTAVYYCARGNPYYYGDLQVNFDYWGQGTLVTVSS VL: QAVVTQEPSLTVSPGGTVTLTCASSTGAVTSGYYPNWFQQKPGQAPRALIYSTSNKHSWTPARFSGSLLGGKAALTLSGVQPEDEAEYYCLLYYGGAWVFGGGTKLTVL
Out: 10 to 50 nM

In: Give EC50 for the following binder: A-026 (IgG1 format) (antibody, V domains shown, human IgG1 format) VH: QVQLQESGPGLVKPSQTLSLTCTVSGGSISSGGYYWSWIRQHPGKGLEWIGYIYYSGSTYYNPSLKSRVTISVDTSKNQFSLKLSSVTAADTAVYYCASWSLGTSNHGWFDPWGQGTLVTVSS VL: QSVLTQPPSASGTPGQRVTISCSGSSSNIGSNTVNWYQQLPGTAPKLLISDNNNRPSGVPDRFSGSKSGTSASLAITGLQAEDEADYYCQSYDSNLSGWVFGGGTKLTVL
Out: > 50 nM

In: Give EC50 for the following binder: A-013 (IgG1 format) (antibody, V domains shown, human IgG1 format) VH: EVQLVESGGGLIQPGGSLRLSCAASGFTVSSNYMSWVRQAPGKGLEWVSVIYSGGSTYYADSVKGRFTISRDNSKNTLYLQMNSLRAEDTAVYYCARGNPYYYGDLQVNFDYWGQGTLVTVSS VL: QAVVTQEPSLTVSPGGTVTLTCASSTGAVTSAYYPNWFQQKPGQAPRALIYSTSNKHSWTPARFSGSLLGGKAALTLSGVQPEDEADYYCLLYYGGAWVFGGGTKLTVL
Out: 10 to 50 nM

In: Give EC50 for the following binder: A-035 (IgG1 format) (antibody, V domains shown, human IgG1 format) VH: QVQLVQSGAEVKKPGASVKVSCKASGYTFTGYYMHWVRQAPGQGLEWMGWINPNSGNTGYAQKFQGRVTMTRNTSISTAYMELSSLRSEDTAVYYCARGRLERGYWYFDLWGRGTLVTVSS VL: NFMLTQPHSVSESPGRTVTISCTRSSGSITSNYVQWYQQRPGSAPTILIYEDKERPSEVPDRFSGSIDISSNSASLTISGLKTEDEADYYCQSYGGTSQGVLFGGGTKVTVL
Out: > 50 nM

In: Give EC50 for the following binder: B-002 (chain-swapped IgG1) (antibody, V domains shown, human IgG1 format; also called B2) VH: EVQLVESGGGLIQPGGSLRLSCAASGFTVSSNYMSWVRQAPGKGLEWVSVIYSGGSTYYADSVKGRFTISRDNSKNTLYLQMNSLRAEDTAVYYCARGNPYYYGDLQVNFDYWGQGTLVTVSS VL: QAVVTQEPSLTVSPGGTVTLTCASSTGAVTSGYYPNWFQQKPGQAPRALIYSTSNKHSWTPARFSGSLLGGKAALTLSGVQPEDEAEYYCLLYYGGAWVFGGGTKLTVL
Out: 10 to 50 nM
